- target-entity: RdRp of the influenza virus (replicon activity) (Influenza A virus, UniProt P03431)
- method: Influenza virus RdRp replicon reporter (Luc) assay in transduced 293T cells
- Assay type: cell-based, Influenza A/PR/8/34 (H1N1)
- test-settings: T-705 0 μM; antimetabolite 2.0 μM
Collected Replicon inhibiting percentage values appear next to each entry.
Give the value, in units of %, as a plain number.

compound=Cn1cnc([N+](=O)[O-])c1Sc1ncnc2nc[nH]c12 property_measured="Replicon inhibiting percentage" result_value=3.4

Request: Field request: Replicon inhibiting percentage | item: C#CCC(Cc1cnc2nc(N)nc(N)c2n1)c1ccc(C(=O)N[C@@H](CCC(=O)O)C(=O)O)cc1 (some centres unmarked) [Pralatrexate, pralatrexate]
Response: 2

Request: Field request: Replicon inhibiting percentage | item: CN(Cc1cnc2nc(N)nc(N)c2n1)c1ccc(C(=O)N[C@@H](CCC(=O)O)C(=O)O)cc1 [Methotrexate, methotrexate]
Response: 20

Request: Field request: Replicon inhibiting percentage | item: `Nc1nc2nc[nH]c2c(=S)[nH]1`
Response: −3.7

Request: Field request: Replicon inhibiting percentage | item: `Sc1ncnc2nc[nH]c12`
Response: 2.7

Cited source: patent US20220096468A1
